# System: cocklebur
# measurementProtocol: Test B pre-/postemergence herbicide test
# Format: in vivo, Xanthium strumarium
# conditionSet: 500 g ai/ha; visual rating, 0 = no effect, 100 = complete control; preemergence
# Experimental: […] At the same time, plants selected from these crop and weed species and also blackgrass (Alopecurus myosuroides Huds.), wheat (Triticum aestivum L.) and wild oat (Avena fatua L.) were treated with postemergence applications of test chemicals formulated in the same manner. […] Treated plants and controls were maintained in a greenhouse for 13 to 15 days, after which time all species were compared to controls and visually evaluated. […]
Let's look at some molecules and their measured Plant response rating, Cocklebur.
# print the numeric value only

// worked examples, Plant response rating, Cocklebur included
>>> resultvalue("CCc1cn(C(C)(C)C)nc1C(=O)Nc1cc(C(=O)N(CC)CC)ccn1 [Compound 234]")
0
>>> resultvalue("CCn1nc(C2(C)CC2)cc1C(=O)Nc1cc(C(=O)N(C)C)ccc1F [Compound 299]")
60
>>> resultvalue("CCn1nc(C(C)(C)C)cc1C(=O)Nc1cccc(C(=O)N2CCOCC2)n1 [Compound 247]")
0
>>> resultvalue("CCc1nn(C(C)(C)C)cc1C(=O)Nc1cc(C(=O)N(CC)CC)ccc1F [Compound 223]")
20
>>> resultvalue("CCn1nc(C(C)(C)C)cc1C(=O)Nc1cncc(C(=O)N(C)C)c1 [Compound 258]")
0

Query string: Which Plant response rating, Cocklebur value is on record for CCn1nc(C(C)(C)C)cc1C(=O)Nc1cc(OC)ccc1OC [Compound 297] ?
Result string: 0

Query string: Looking for the measured Plant response rating, Cocklebur of CCOC(=O)c1ccc(F)c(NC(=O)C2CN(C(C)(C)C)N=C2CC)c1 (racemic) [Compound 335] , can you help?
Result string: 10

---

# System: velvetleaf
# measurementProtocol: Test A pre-/postemergence herbicide test
# Assay type: in vivo, Abutilon theophrasti
# conditionSet: Postemergence, 500 g ai/ha; 0 to 100 scale, 0 no effect, 100 complete control
List of Velvetleaf plant response rating values.
Could you respond with only the numeric value?

A selection of reference data follows.
>>> resultvalue("CCCCNS(=O)(=O)c1cccc(NC(=O)c2cc(C(C)(C)C)nn2C)c1")
0
>>> resultvalue("CCn1nc(C(C)(C)C)cc1C(=O)Nc1cccc(SC(F)(F)F)c1")
20
>>> resultvalue("CCCCOC(=O)c1cccc(NC(=O)c2cc(C(C)(C)C)nn2CC)c1")
40

Query string: Quick one: Velvetleaf plant response rating of "CC(=NO)c1cccc(NC(=O)c2cc(C(C)(C)C)nn2CCF)c1" ?
Result string: 40

Query string: Give the measured Velvetleaf plant response rating of "CCOC(=O)c1cccc(NC(=O)c2cc(C(C)(C)C)nn2C)n1" .
Result string: 40

Query string: Name the reported Velvetleaf plant response rating value associated with the molecule "CC(C)NS(=O)(=O)c1cccc(NC(=O)c2cc(C(C)(C)C)nn2C)c1"
Result string: 10

---

# System: corn
# measurementProtocol: Test B pre-/postemergence herbicide test
# Assay type: in vivo, Zea mays
# conditionSet: 125 g ai/ha; 0 is no effect, 100 is complete control; preemergence
readoutType: Plant response rating (0 to 100 scale), Corn
Would you mind answering with just the numeric figure?

Solved entries:
>>> resultvalue("CCn1nc(C(C)(C)C)cc1C(=O)Nc1cccc(OC(F)F)c1")
0
>>> resultvalue("CCn1nc2c(c1C(=O)Nc1cc(C(=O)N(C)C)ccc1F)CCC2(C)C")
60

Query string: Please provide the recorded Plant response rating (0 to 100 scale), Corn for "CCOC(=O)c1ccc(F)c(NC(=S)c2cc(C(C)(C)C)nn2CC)c1" , tested on corn.
Result string: 0

Query string: Return Plant response rating (0 to 100 scale), Corn measured with corn given this compound: "Cc1nn(C(C)C)nc1C(=O)Nc1cc(C(=O)N(C)C)ccc1F"
Result string: 0

Query string: Entry "CCOC(=O)c1cccc(NC(=O)c2nn(C(C)(C)CC)nc2CC)c1" , system corn: what Plant response rating (0 to 100 scale), Corn was measured?
Result string: 0

Query string: Request: Plant response rating (0 to 100 scale), Corn, test system corn, entry "C#CCOC(=O)c1cccc(NC(=O)c2cc(C(C)(C)C)nn2C)n1"
Result string: 0

---

Listing of recorded Plant response rating, Cocklebur by entry.
# Tested on: cocklebur
# measurementProtocol: Test B pre-/postemergence herbicide test
# Format: in vivo, Xanthium strumarium
# conditionSet: Postemergence, 500 g ai/ha; visual rating after 13 to 15 days, scale 0 (no effect) to 100 (complete control)
Give the value as a plain number.

Use these answered entries as a reference point.
>>> resultvalue("CCCN1CCc2c(NC(=O)c3cc(C(C)(C)C)nn3CC)cccc2C1=O")
80
>>> resultvalue("CCOC(=O)c1cc(NC(=O)c2cc(C(C)(C)C)nn2CC)ccc1OC")
100

// moving on: another record for Plant response rating, Cocklebur
Query string: Field: Plant response rating, Cocklebur (cocklebur). Entry: "CCOC(=O)c1cccc(NC(=O)c2cc(C(C)(C)C)nn2CC)c1C"
Result string: 50

---

# Test system: common ragweed
# measurementProtocol: Test C pre-/postemergence herbicide test
# Type: in vivo, Ambrosia elatior
# Parameters: key: 0 = no effect, 100 = complete control
# conditionSet: postemergence; 62 g ai/ha; scale 0 to 100
Reported Plant response rating, Ragweed values follow for various molecules
Please state the value as a number alone, without comment.

>>> resultvalue("C#CCn1nc(C(C)(C)C)cc1C(=O)Nc1cccc(C(=O)NCC)c1 [Compound 50]")
80

Query string: # returns recorded Plant response rating, Ragweed (system: common ragweed) for C=Cn1nc(C(C)(C)C)cc1C(=O)Nc1cccc(C(C)=NO)c1 [Compound 114]
Result string: 60

Query string: Provide the documented Plant response rating, Ragweed with common ragweed as the system for CCn1nc(C(C)(C)C)cc1C(=O)Nc1cccc(OC(F)F)c1 [Compound 332]
Result string: 5

Query string: # query: Plant response rating, Ragweed | item C#CCNC(=O)c1cccc(NC(=O)c2cc(C(C)(C)C)nn2CC)c1 [Compound 47] | system: common ragweed
Result string: 70

---

# Tested on: barnyardgrass
# measurementProtocol: Test B pre-/postemergence herbicide test
# Assay type: in vivo, Echinochloa crus-galli
# conditionSet: 500 g ai/ha; visual rating 0-100, 0 no effect, 100 complete control; preemergence
# Plant response rating, Barnyardgrass >= 90 gives TRUE, anything below gives FALSE

>>> category("CCc1nc(C(C)(C)C)sc1C(=O)Nc1cccc(C(=O)NCC(C)C)c1")
"FALSE"
>>> category("CCn1nc(C(C)(C)C)cc1C(=O)Nc1cc(C(=O)N2CC=CC2)ccn1")
"TRUE"
>>> category("CCn1nc(C(C)(C)C)cc1C(=O)Nc1cccc(C(=O)OC(C)(C)C)c1")
"FALSE"
>>> category("COC(=O)c1cccc(NC(=O)c2sc(C(C)(C)C)nc2C)c1")
"FALSE"
>>> category("CCn1nc(C(C)(C)C)cc1C(=O)Nc1cccc([S+]([O-])C(F)(F)F)c1 (stereo not drawn)")
"FALSE"

Query string: Could you please find out whether "CC(=NO)c1cc(NC(=O)c2cc(C(C)(C)C)nn2C)ccc1F" has Plant response rating, Barnyardgrass that meets 90 or exceeds it?
Result string: TRUE

Query string: Plant response rating, Barnyardgrass >= 90 for "C=Cn1nc(C(C)(C)C)cc1C(=O)Nc1cccc(C(C)=O)c1" ?
Result string: FALSE

Query string: Say whether "CCCCNS(=O)(=O)c1cccc(NC(=O)c2cc(C(C)(C)C)nn2C)c1" shows Plant response rating, Barnyardgrass of 90 or more.
Result string: FALSE

---

# System: giant foxtail
# measurementProtocol: Test B pre-/postemergence herbicide test
# Format: in vivo, Setaria faberi
# conditionSet: 125 g ai/ha; 0 = no effect, 100 = complete control; preemergence
Below, each of the compounds is paired with its reported Foxtail, Giant plant response rating (0 to 100 scale) value.
Just the number, please, no unit after it.

Examples with answers:
>>> resultvalue("CCc1nc(C(C)(C)C)sc1C(=O)Nc1cccc(C(=O)NCC(F)(F)F)c1 [Compound 206]")
0
>>> resultvalue("CCNC(=O)c1cccc(NC(=O)c2cn(C(C)(C)C)nc2C)c1 [Compound 183]")
0
>>> resultvalue("CCOC(=O)c1cccc(NC(=O)c2cc(C(C)(C)C)nn2C)n1 [Compound 313]")
40

Query string: Return reported Foxtail, Giant plant response rating (0 to 100 scale); argument: CCOC(=O)c1cc(NC(=O)c2cc(C(C)(C)C)nn2CC)c(F)cc1F [Compound 250]
Result string: 0

Query string: I have this compound here, CCN(C)C(=O)c1cncc(NC(=O)c2cc(C(C)(C)C)nn2CC)c1 [Compound 263] , and I need its recorded Foxtail, Giant plant response rating (0 to 100 scale).
Result string: 0

Query string: # lookup: Foxtail, Giant plant response rating (0 to 100 scale) of CCN(C)C(=O)c1ccc(F)c(NC(=O)C2CC(C(C)(C)C)=NN2CC)c1 (racemic) [Compound 307]
Result string: 90
